All values here come from PubChem BioAssay AID1159580.

Assay: chemical genetic growth profiling, strain panel (AID 1159580);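 further: tested at 20 µM; growth read once vehicle control cultures reached saturation at 30 °C; 1 = growth at the plate median or of vehicle wells; lower values mean less growth of the strain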
Run Parameters: S. cerevisiae deletion strains, growth OD, locus YML016C, strain PPZ1, hits give low values
In all, about 5,500 compounds went through this assay and about 2,000 (36%) were called active. Inconclusive results (about 18%) are left out. The list shows a part of the results.
Property Measured: normalized growth
Answers are plain numbers.

Value of normalized growth reported for the molecule OCc1ccccc1O[C@@H]1O[C@H](CO)[C@@H](O)[C@H](O)[C@H]1O is 0.988

For each of the molecules below, state normalized growth.
1. C=CCc1ccc2c(c1)OCO2
2. CCCCCC(C)N (stereo not drawn)
3. OC(CCN1CCCCC1)(c1ccccc1)c1ccccc1
4. CCCCOc1ccc(C(=O)CCN2CCCCC2)cc1
5. C1CCc2nnnn2CC1
6. O=c1ccc2cc(O)c(O)cc2o1

1.01
1.01
1
0.17
1.01
1.02

For each of the molecules below, state normalized growth.
1. CC(C)=CCc1c(O)cc2oc(C)cc(=O)c2c1O
2. Cc1ccc(C(=O)C(C)CN2CCCCC2)cc1 (stereo not drawn)
3. CC(C)[N+](C)(CCOC(=O)C1c2ccccc2Oc2ccccc21)C(C)C

0.997
1.01
1

For each of the molecules below, state normalized growth.
1. C=CC1=C(C(=O)O)N2C(=O)[C@@H](NC(=O)/C(=N/O)c3csc(N)n3)[C@H]2SC1
2. O=c1ccc2ccccc2o1
3. CCCCOc1ccc(OCCCN2CCOCC2)cc1

1. 0.987
2. 1.02
3. 0.985

###

Assay: chemical genetic growth profiling, strain panel (AID 1159580)
Run Parameters: S. cerevisiae deletion strains, growth OD, locus YOR001W, strain rrp6, hits give low values
Out of some 5,500 compounds screened, about 2,000 (36%) were called active. Roughly 18% stayed inconclusive and do not appear here. Some of the results follow.
Property Measured: normalized growth
One number for each entry.

Value of normalized growth reported for the compound O=C1C[C@@H](c2ccc(O)cc2)Oc2cc(O)cc(O)c21 is 0.983

Value of normalized growth reported for the compound C[C@@H]1O[C@@H](O[C@H]2[C@@H](Oc3cc(O)c4c(c3)O[C@H](c3ccc(O)cc3)CC4=O)O[C@H](CO)[C@@H](O)[C@@H]2O)[C@H](O)[C@H](O)[C@H]1O is 0.998

Value of normalized growth reported for the compound CN=C(NC#N)NCCSCc1nc[nH]c1C is 0.999

Value of normalized growth reported for the compound COc1cc2c(cc1OC)C(=O)C(CC1CCN(Cc3ccccc3)CC1)C2 (stereo not given) is 0.931

Value of normalized growth reported for the compound CCCCCCCC/C=C/CCCCCCCCOP(=O)([O-])OCC[N+](C)(C)C is 0.0584

Value of normalized growth reported for the compound CCCCOc1ccc(CC(=O)NO)cc1 is 1.01

For each of the compounds below, state normalized growth.
1. CCSC(=N)N
2. C[N+](C)(C)CCOP(=O)([O-])OP(=O)(O)OC[C@H]1OC(n2ccc(N)nc2=O)[C@H](O)[C@@H]1O (stereo not given in full)
3. COC(=O)C1=COC(OC2OC(CO)C(O)C(O)C2O)C2C(C)CC(=O)C12O (stereo not given)
4. O=C(Cc1ccccc1)NO

1. 1.02
2. 0.988
3. 1.02
4. 1

###

Assay: chemical genetic growth profiling, strain panel (AID 1159580)
Run Parameters: S. cerevisiae deletion strains, growth OD, locus YCL061C, strain MRC1, hits give low values
Screen size: about 5,500 compounds; about 2,000 (36%) were called active. Roughly 18% stayed inconclusive and do not appear here. This is one part of the list.
Property Measured: normalized growth
One number for each entry.

Answered examples (3):
Value of normalized growth reported for the compound COC(=O)c1cc(OC)c(OC)c(OC)c1NS(=O)(=O)c1cc(OC)ccc1OC is 0.974

Value of normalized growth reported for the compound CC(C(=O)O)c1ccc2c(c1)[nH]c1ccc(Cl)cc12 (stereo unspecified) is 0.978

Value of normalized growth reported for the compound CC1(C)S[C@@H]2[C@H](NC(=O)[C@H](NC(=O)N3CCNC3=O)c3ccccc3)C(=O)N2C1C(=O)O (stereo partly specified) is 0.99

For each of the compounds below, state normalized growth.
1. O=C(O)COc1cc(Cl)c(Cl)cc1Cl
2. NCC1CCCCC1CC(=O)O (stereo unspecified)

1
1.04

For each of the compounds below, state normalized growth.
1. COc1ccc(C(=O)c2ccccc2O)c(O)c1
2. COc1ccc(S(=O)(=O)Nc2cc(C)c(C)cc2[N+](=O)[O-])c(OC)c1
3. COc1c2c(c(CC=C(C)C)c3oc(=O)c(-c4ccc(O)cc4)c(O)c13)OC(C)(C)C=C2
4. COC(=O)COc1cc(Cl)c(Cl)cc1Cl

[0.888, 1, 0.816, 0.985]

For each of the compounds below, state normalized growth.
1. O=C(/C=C/C=C/c1ccc2c(c1)OCO2)N1CCCCC1
2. COc1ccc2c(c1)OC[C@@H](Cc1ccc(OC)c(OC)c1)[C@H]2O

1. 0.943
2. 0.98

###

Assay: chemical genetic growth profiling, strain panel (AID 1159580);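 further: tested at 20 µM; growth read once vehicle control cultures reached saturation at 30 °C; 1 = growth at the plate median or of vehicle wells; lower values mean less growth of the strain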
Run Parameters: S. cerevisiae deletion strains, growth OD, locus YFL009W, strain cdc4, hits give low values
About 2,000 (36%) of roughly 5,500 compounds were called active. Not shown: some 18% with an inconclusive outcome. This is one part of the list.
Property Measured: normalized growth
Answers are plain numbers.

Value of normalized growth reported for the compound Cn1c([N+](=O)[O-])cnc1/C=C(\C#N)C(=O)Nc1ccc(F)cc1 is 0.913

For each of the compounds below, state normalized growth.
1. COc1ccc(NC(=O)O/N=C(/N)c2ccc(Oc3c(Cl)cncc3Cl)cc2)cc1
2. O=[N+]([O-])c1cc(C(F)(F)F)ccc1-n1ccc(-c2cccs2)n1
3. C/C(=N/NC(N)=S)c1ccccn1

[0.963, 0.952, 0.939]

For each of the compounds below, state normalized growth.
1. O=C(C=C(O)c1ccc(Br)cc1)C(=O)Nc1ccccc1
2. CCC(C)c1ccccc1NC(=O)c1cc2cccc([N+](=O)[O-])c2[nH]1 (configuration not stated)
3. Cn1cncc1S(=O)(=O)/C(C#N)=C/c1ccccc1Sc1ccc(Cl)cc1
4. C/C(=N/NC(N)=S)c1ccc(Oc2c(Cl)cncc2Cl)cc1

[0.7, 0.906, 0.971, 0.983]

For each of the compounds below, state normalized growth.
1. O=C(Nc1c(Br)c(C2CC2)nn1-c1ccccc1)C(Cl)(Cl)Cl
2. NCCCN=c1ccc2c3c1c(O)c1c(O)ccc(=O)c1c3[nH]n2CCNCCO
3. N#C/C(=C\c1ccccc1Sc1ccc(Cl)cc1)S(=O)(=O)c1ccccn1
4. Cc1c(C(=O)N2CCCCC2)cc(-c2ccccc2)n1-c1ccccc1

0.92
0.982
0.967
0.952

###

Provide the recorded normalized growth for the entries that follow.
Assay: chemical genetic growth profiling, strain panel (AID 1159580);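 further: tested at 20 µM; growth read once vehicle control cultures reached saturation at 30 °C; 1 = growth at the plate median or of vehicle wells; lower values mean less growth of the strain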
Run Parameters: S. cerevisiae deletion strains, growth OD, locus YGL240W, strain doc1, hits give low values
The whole screen tested about 5,500 compounds, of which about 2,000 (36%) were called active. About 18% were inconclusive and are not listed. Some of the results follow.

Value of normalized growth reported for the compound CC(=O)OC1CC23CC24CCC(OC2OCC(O)C(O)C2O)C(C)(C)C4CCC3C2(C)CC3OC4(CC(C)C3C12C)OC(O)C1(C)OC41 (stereo unspecified) is 1.04 (inactive)

Value of normalized growth reported for the compound c1ccc(CN(CC2=NCCN2)c2ccccc2)cc1 is 1.04 (inactive)

For each of the compounds below, state normalized growth.
1. C=C1CC[C@H](O)C/C1=C/C=C1\CCC[C@]2(C)C([C@H](C)/C=C/[C@H](C)C(C)C)CC[C@@H]12 (stereo partly specified)
2. OC(CCN1CCCCC1)(c1ccccc1)c1ccccc1
3. Cc1ccc(O)cc1
4. C/C=C(/C(=C/C)c1ccc(O)cc1)c1ccc(O)cc1
5. CC(C)[C@H](N)C(=O)OCCOCn1cnc2c(=O)[nH]c(N)nc21
6. COc1cccc([C@]2(O)CCCC[C@H]2CN(C)C)c1
7. COc1ccc(C(=O)c2ccccc2)c(O)c1

1.03 (inactive)
1.02 (inactive)
1.02 (inactive)
0.945 (inactive)
0.993 (inactive)
0.947 (inactive)
0.609 (active)

For each of the compounds below, state normalized growth.
1. CN1C2CC3C[C@H]1C(O3)C2O (stereo partly specified)
2. CCN(CC)C(=S)SSC(=S)N(CC)CC

1. 0.972 (inactive)
2. 0.0818 (active)

###

Assay: chemical genetic growth profiling, strain panel (AID 1159580);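 further: tested at 20 µM; growth read once vehicle control cultures reached saturation at 30 °C; 1 = growth at the plate median or of vehicle wells; lower values mean less growth of the strain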
Run Parameters: S. cerevisiae deletion strains, growth OD, locus YLR058C, strain SHM2 (second series), hits give low values
The whole screen tested about 5,500 compounds, of which about 2,000 (36%) were called active. Not shown: some 18% with an inconclusive outcome. The list shows a part of the results.
Property Measured: normalized growth
Give bare numbers.

Answered examples (3):
Value of normalized growth reported for the molecule O=C(O)CSCCOc1ccccc1 is 1.01

Value of normalized growth reported for the molecule CNC(=S)NN=C(N)c1ccccn1 is 1.01

Value of normalized growth reported for the molecule CN(C)/C=C(\C#N)C(=O)Nc1ccc(F)c(Cl)c1 is 1.01

For each of the molecules below, state normalized growth.
1. NC1=C(c2ccccc2)C(=O)NC1=O
2. CCCC(C)(SCC(=O)O)SCC(=O)O
3. CC12CCC(C1)C(C)(C)C2NC(=O)c1cccs1 (stereo not drawn)
4. COc1ccccc1C1CCN(Cc2ccc3ccccc3c2)CC1
5. Cc1cc(C)c(NC(=S)NCCCN2CCOCC2)c(C)c1

1.02
0.984
0.994
0.985
1.01

For each of the molecules below, state normalized growth.
1. COc1ccccc1CC(=O)NC1CCN(Cc2ccccc2)CC1
2. CCOC(=O)COc1ccc2c(c1)OC(C)(C)CC2=O

1: 1.01; 2: 1

For each of the molecules below, state normalized growth.
1. CN(C)C=Nc1nc2c(s1)CCc1ccccc1-2
2. O=C(Nc1ccccc1C(=O)NC1CCCCNC1=O)c1cccs1 (stereo not drawn)
3. CC(C)(C)OC(=O)N1CCC(C(N)=O)CC1

1: 0.989; 2: 1; 3: 1.01

For each of the molecules below, state normalized growth.
1. Cc1cc(C)c2c(-n3cccc3)c(C(=O)c3ccc(Cl)cc3)sc2n1
2. CC1(C)/C(=N/OC(=O)c2cccc(C(F)(F)F)c2)[C@]2(C)CCC1C2
3. Cc1ccc(Oc2ccc(C)cc2)cc1

1.01
1.01
0.991

For each of the molecules below, state normalized growth.
1. Cc1c(C(=O)O)cc(-c2ccccc2)n1-c1ccccc1
2. CC(=O)/C(=C\Nc1ncccn1)S(=O)(=O)c1ccc(Cl)cc1

1: 1.01; 2: 0.993

For each of the molecules below, state normalized growth.
1. O=c1[nH]c2cccnc2[nH]c1=O
2. FC(F)(F)Oc1ccc(-c2noc(CSc3ccc(Br)cc3)n2)cc1

1
0.997

For each of the molecules below, state normalized growth.
1. O=C(O)C1c2ccccc2Oc2ccccc21
2. Cc1cc(=O)n2c(-c3ccc(Cl)cc3)csc2n1
3. CC(SCc1ccccc1)C(=O)O (stereo not drawn)

1. 0.998
2. 0.956
3. 0.988

For each of the molecules below, state normalized growth.
1. CC(=O)OCc1ccc(/C=C(\C#N)S(=O)(=O)c2ccc(Cl)cc2)o1
2. CN1C(=O)CN=C(c2ccccc2)c2ccccc21
3. O=C(c1ccccc1)C1CCN(c2ccc(C(F)(F)F)cc2[N+](=O)[O-])CC1
4. O=C(O)c1cnn(-c2ccccc2)c1C(F)(F)F
5. Cc1nn(-c2ccccc2)nc1C(=O)NC(=O)N1CCCC1
6. COC(=O)c1c(C)[nH]c(C)c1C(C)=O
7. Cc1ccc2cc(C)c(C)cc2c1
8. CCCCOc1cc(C(=O)O)ccc1OC

1. 0.996
2. 1.01
3. 0.997
4. 1.01
5. 0.997
6. 1
7. 0.992
8. 0.979

For each of the molecules below, state normalized growth.
1. CN(C)/C=C1\C(=O)c2ccccc2N(C)S1(=O)=O
2. CC(=O)Nc1cccc(-n2nnc(SCc3ccccc3)n2)c1

[0.983, 0.997]
